- assay details: Metabolic stability of compound in human liver microsomes assessed as elimination half-life at 0.2 uM in presence of NADPH by LC-MS/MS analysis
- Assay type: ADME, Microsome
- condition info: read-out: beta t1/2
assay endpoint: half-life at 0.2 µM (min)

> print(dat)
                                        mol  result.qualifier  endpoint.result
1  Cc1nc(-c2cccc(C#N)c2)n(OCc2ccc(C#N)cc2)c1C(=O)O                 >              120
2  CCOC(=O)c1c(C)nc(-c2cccc(C#N)c2)n1OCc1ccc(C#N)cc1                 =              121

----------
- tested target: CYP2D6 (Homo sapiens)
- Sequence (P10635 whole entry): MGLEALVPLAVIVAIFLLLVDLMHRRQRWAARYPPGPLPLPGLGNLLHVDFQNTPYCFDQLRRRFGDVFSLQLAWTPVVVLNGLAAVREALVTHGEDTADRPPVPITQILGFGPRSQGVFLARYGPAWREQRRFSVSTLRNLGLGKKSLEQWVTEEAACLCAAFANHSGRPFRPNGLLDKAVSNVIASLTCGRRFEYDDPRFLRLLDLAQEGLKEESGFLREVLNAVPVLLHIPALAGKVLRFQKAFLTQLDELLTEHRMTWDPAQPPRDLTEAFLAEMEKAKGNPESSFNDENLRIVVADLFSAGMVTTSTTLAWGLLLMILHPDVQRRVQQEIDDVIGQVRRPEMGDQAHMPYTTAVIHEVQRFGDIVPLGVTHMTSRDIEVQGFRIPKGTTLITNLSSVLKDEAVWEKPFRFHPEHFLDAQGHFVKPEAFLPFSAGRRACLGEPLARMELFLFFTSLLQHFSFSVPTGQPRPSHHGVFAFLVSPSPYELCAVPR
- assay details: Inhibition of CYP2D6 in human liver microsomes at 10 uM using dextromethorphan as substrate preincubated for 5 mins followed by NADPH generating system addition and measured after 120 mins by LC-MS/MS analysis relative to control
- Type: ADME
- condition info: probe dextromethorphan, time 125 min
assay endpoint: inhibition at 2 h, 10 µM (%)

> print(dat)
                                        mol          tested.target  scale.unit  endpoint.result
1  CCOC(=O)c1c(C)nc(-c2cccc(C#N)c2)n1OCc1ccc(C#N)cc1  CYP2D6 (Homo sapiens)           %             31.7
2  Cc1nc(-c2cccc(C#N)c2)n(OCc2ccc(C#N)cc2)c1C(=O)O  CYP2D6 (Homo sapiens)           %             2.42

----------
- assay details: Apparent volume of distribution in male Sprague-Dawley rat at 10 mg/kg, iv administered as single dose by LC-MS analysis
- Type: ADME, organism-based
- condition info: in vivo, read-out: Vz
assay endpoint: Vd (L/kg)

> print(dat)
                                        mol  endpoint.result
1  Cc1nc(-c2cccc(C#N)c2)n(OCc2ccc(C#N)cc2)c1C(=O)O             21.3

----------
- assay details: Tmax in male Sprague-Dawley rat at 10 mg/kg, iv administered as single dose by LC-MS analysis
- Assay type: ADME, organism-based
- condition info: in vivo
assay endpoint: Tmax (min)

> print(dat)
                                        mol  assay.endpoint  endpoint.result
1  Cc1nc(-c2cccc(C#N)c2)n(OCc2ccc(C#N)cc2)c1C(=O)O            Tmax              8.4

----------
- tested target: CYP2C19 (Homo sapiens)
- Sequence (P33261 whole entry): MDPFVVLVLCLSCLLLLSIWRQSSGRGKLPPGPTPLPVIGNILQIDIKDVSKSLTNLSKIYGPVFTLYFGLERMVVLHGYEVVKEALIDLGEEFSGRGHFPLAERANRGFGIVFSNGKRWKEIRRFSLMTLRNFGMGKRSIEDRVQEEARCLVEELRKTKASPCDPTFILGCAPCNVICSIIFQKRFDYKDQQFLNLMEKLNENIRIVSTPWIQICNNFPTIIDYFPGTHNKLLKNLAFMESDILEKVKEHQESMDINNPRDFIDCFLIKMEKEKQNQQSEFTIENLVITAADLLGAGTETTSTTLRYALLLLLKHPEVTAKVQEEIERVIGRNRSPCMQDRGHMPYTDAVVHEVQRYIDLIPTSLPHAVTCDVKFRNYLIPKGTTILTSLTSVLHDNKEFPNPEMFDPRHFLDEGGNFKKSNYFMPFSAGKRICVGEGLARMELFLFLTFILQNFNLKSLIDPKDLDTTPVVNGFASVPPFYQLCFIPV
- assay details: Inhibition of CYP2C19 in human liver microsomes at 10 uM using S-mephenytoin as substrate preincubated for 5 mins followed by NADPH generating system addition and measured after 120 mins by LC-MS/MS analysis relative to control
- Type: ADME
- condition info: probe S-mephenytoin, time 125 min
assay endpoint: inhibition at 2 h, 10 µM (%)

> print(dat)
                                        mol            assay.endpoint  endpoint.result
1  CCOC(=O)c1c(C)nc(-c2cccc(C#N)c2)n1OCc1ccc(C#N)cc1  inhibition at 2 h, 10 µM             4.52
2  Cc1nc(-c2cccc(C#N)c2)n(OCc2ccc(C#N)cc2)c1C(=O)O  inhibition at 2 h, 10 µM             1.97
